Where do the numbers come from? From patent US11352391B2.

Recorded measurements of hNK2 selectivity ratio, one per entry
Target: human NK2 Receptor (hNK2R) (Homo sapiens)
Sequence (P21452 1-398): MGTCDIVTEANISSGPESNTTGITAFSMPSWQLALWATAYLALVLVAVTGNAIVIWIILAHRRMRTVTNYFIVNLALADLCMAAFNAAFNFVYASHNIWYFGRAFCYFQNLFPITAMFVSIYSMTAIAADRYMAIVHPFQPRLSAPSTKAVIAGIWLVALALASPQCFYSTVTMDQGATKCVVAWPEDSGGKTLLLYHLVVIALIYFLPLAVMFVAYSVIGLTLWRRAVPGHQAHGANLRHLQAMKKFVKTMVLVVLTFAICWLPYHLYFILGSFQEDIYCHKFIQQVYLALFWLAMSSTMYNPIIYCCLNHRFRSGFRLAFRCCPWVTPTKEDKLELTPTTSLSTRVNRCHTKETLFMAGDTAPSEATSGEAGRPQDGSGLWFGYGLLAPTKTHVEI
Experiment: [125I]-NKA radioligand competition binding to human recombinant NK2Rs (CHO-hNK2 membranes)
Conditions: ratio of Kis hNK1R/hNK2R
Where a SMILES comes first, the peptide text is derived from it.
test_readout: hNK2 selectivity ratio

{"columns": ["compound", "assayed_target", "numeric_readout"],
 "data": [
  ["CCCC[C@H](NC(=O)[C@H](CC(C)C)NC(=O)CNC(=O)[C@@H](NC(=O)[C@H](Cc1ccccc1)NC(=O)[C@H](CCCNC(=N)N)NC(=O)[C@@H](N)CC(=O)O)C(C)C)C(N)=O [J, Asp-Arg-Phe-Val-Gly-Leu-Nle-NH2] (HELM PEPTIDE1{D.R.F.V.G.L.[Nle].[am]}$$$$V2.0; N-terminus assumed)", "human NK2 Receptor (hNK2R) (Homo sapiens)", 72.53],
  ["CCCC[C@H](NC(=O)[C@H](CC(C)C)NC(=O)CCNC(=O)[C@@H](NC(=O)[C@H](Cc1ccccc1)NC(=O)[C@H](CCCCN)NC(=O)[C@@H](N)CC(=O)O)C(C)C)C(N)=O [Compound G, Asp-Lys-Phe-Val-(β-Ala)-Leu-Nle-NH2] (HELM PEPTIDE1{D.K.F.V.[bAla].L.[Nle].[am]}$$$$V2.0; N-terminus assumed)", "human NK2 Receptor (hNK2R) (Homo sapiens)", 188.58],
  ["CCCC[C@H](NC(=O)[C@H](CC(C)C)NC(=O)CNC(=O)[C@@H](NC(=O)[C@H](Cc1ccccc1)NC(=O)[C@H](CCCCN)NC(=O)[C@@H](N)CC(=O)O)C(C)C)C(N)=O", "human NK2 Receptor (hNK2R) (Homo sapiens)", 81.47]
]}
